- Test Target: hTLR9 (Homo sapiens)
- Sequence (Q9NR96 26-1032): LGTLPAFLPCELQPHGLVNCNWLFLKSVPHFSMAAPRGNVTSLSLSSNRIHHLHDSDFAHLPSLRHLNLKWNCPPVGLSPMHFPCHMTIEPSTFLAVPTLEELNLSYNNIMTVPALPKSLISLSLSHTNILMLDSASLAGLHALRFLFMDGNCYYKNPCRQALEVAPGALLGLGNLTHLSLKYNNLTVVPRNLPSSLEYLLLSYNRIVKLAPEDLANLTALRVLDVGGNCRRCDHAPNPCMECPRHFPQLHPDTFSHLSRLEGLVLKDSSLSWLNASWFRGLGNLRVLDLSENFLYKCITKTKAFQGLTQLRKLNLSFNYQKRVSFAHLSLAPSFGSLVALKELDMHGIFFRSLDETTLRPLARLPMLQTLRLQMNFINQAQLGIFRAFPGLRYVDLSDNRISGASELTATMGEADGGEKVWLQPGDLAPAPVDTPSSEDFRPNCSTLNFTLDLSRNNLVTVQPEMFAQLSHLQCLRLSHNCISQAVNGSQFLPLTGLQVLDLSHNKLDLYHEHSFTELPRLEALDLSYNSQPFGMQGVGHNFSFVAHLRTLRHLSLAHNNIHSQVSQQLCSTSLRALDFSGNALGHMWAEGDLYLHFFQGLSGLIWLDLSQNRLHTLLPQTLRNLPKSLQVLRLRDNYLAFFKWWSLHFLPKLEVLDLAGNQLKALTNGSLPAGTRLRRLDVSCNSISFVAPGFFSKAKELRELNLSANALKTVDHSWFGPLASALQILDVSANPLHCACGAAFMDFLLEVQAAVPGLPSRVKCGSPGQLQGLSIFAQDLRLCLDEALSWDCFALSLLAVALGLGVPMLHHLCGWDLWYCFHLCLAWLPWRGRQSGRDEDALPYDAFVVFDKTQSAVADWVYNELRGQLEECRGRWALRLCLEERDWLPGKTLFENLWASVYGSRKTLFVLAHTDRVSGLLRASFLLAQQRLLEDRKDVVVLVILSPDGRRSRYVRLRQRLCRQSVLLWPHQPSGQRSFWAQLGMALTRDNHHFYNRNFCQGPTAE
- Assay Comment: HEK293-Blue-hTLR-9 cells assay (SEAP reporter, ODN2006 stimulation)
- Assay type: cell-based
- Design: host or cells: HEK293 (HEK-Blue hTLR9)
- Condition Description: HEK293-Blue-hTLR9 cells, ODN2006, 20 hrs; read-out: HEK/hTLR9 IC50
pIC50: −log10 of the molar value.
Parameter Measured: pIC50

Compound	Parameter Measured	Recorded Measurement
Cc1cc(N2CCN(C[C@H]3CN(c4ccc(C#N)c5ncccc45)C[C@@H](C)O3)CC2)nc(N2C[C@H](N)C[C@H](F)C2)n1 (relative stereo)	pIC50	7.14
C[C@@H]1CN(c2ccc(C#N)n3nccc23)C[C@H](CN2CC(c3ccc(N4CC(C)(N)C4)cc3)C2)O1	pIC50	7.00
C[C@@H]1CN(c2ccc(C#N)c3ncccc23)C[C@H](CN2CCN(c3ccccc3C3CNCCO3)CC2)O1 (stereo partly drawn)	pIC50	7.00
